- testSystem: FGFR4 (Homo sapiens (Human))
- assayProcedure: Kinase assay, binding constants (Kd), kinase-tagged T7 phage, qPCR
observedProperty: Kd

Example compounds with recorded Kd:
Record CCOC(=O)N1CC2(C1)CN(c1ccc(-c3n[nH]c4ccc(O[C@H](C)c5c(C)cnnc5C)cc34)cn1)C2 [Example 142] , field Kd: 1 to 20 nM

Record CCOC(=O)N1CC2(C1)CN(c1ccc(-c3n[nH]c4ccc(O[C@H](C)c5c(Cl)cncc5Cl)cc34)cn1)C2 [Example 121] , field Kd: 1 to 20 nM

Record Cc1cc2[nH]nc(-c3cnc(N4CC5(C4)CN(S(C)(=O)=O)C5)c(C#N)c3)c2cc1O[C@H](C)c1c(Cl)cncc1Cl [Example 352] , field Kd: 1 to 20 nM

Record CCS(=O)(=O)N1CC2(CN(c3ncc(-c4n[nH]c5ccc(O[C@H](C)c6c(Cl)cnc(C)c6Cl)cc45)cn3)C2)C1 [Example 181] , field Kd: 1 to 20 nM

***
Record Cc1ncc(Cl)c([C@@H](C)Oc2ccc3[nH]nc(-c4ccc(N5CC6(CCC6)C5)nc4)c3c2)c1Cl [Example 212] , field Kd: 100 to 300 nM

Record C[C@@H](Oc1ccc2[nH]nc(-c3cnn(C4CCNCC4)c3)c2c1)c1c(Cl)cncc1Cl [Example 64] , field Kd: 1 to 20 nM

Record C[C@@H](Oc1ccc2[nH]nc(-c3cnn(C4CCN(C5CCC5)CC4)c3)c2c1)c1cc(F)cc(F)c1 [Example 167] , field Kd: > 300 nM

----------
# Kd per record follows
- testSystem: FGFR3 (V555M) (Homo sapiens (Human), UniProt P22607, V555M)
- Sequence (P22607 23-806 V555M): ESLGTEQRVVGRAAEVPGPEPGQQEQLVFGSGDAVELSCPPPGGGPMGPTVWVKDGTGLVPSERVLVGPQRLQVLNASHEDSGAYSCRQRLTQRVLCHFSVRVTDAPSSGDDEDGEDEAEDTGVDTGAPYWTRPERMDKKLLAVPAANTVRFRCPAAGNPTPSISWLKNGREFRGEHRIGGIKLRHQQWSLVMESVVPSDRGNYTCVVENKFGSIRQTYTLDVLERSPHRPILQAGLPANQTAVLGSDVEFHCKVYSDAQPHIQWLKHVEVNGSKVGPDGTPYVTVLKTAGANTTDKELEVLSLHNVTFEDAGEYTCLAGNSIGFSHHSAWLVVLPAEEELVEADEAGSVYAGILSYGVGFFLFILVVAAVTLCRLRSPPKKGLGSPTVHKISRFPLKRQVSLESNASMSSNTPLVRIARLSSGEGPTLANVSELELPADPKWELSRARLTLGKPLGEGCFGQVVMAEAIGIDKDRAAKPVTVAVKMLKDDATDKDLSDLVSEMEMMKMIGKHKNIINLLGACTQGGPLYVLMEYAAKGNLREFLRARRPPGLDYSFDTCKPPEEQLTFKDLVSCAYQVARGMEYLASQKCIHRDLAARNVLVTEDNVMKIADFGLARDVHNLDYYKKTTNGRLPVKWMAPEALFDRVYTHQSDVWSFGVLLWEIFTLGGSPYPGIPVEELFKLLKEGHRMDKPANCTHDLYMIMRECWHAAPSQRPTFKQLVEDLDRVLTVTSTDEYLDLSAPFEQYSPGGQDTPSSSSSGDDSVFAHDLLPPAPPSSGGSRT
- assayProcedure: Kinase assay, binding constants (Kd), kinase-tagged T7 phage, qPCR
- condition: V555M mutant

Example compounds with recorded Kd:
Bench note, FGFR3 (V555M) (Homo sapiens (Human), UniProt P22607, V555M): entry Cc1ncc(Cl)c([C@@H](C)Oc2ccc3[nH]nc(-c4ccc(N5CC6(C5)CN(S(C)(=O)=O)C6)nc4)c3c2)c1Cl [Example 107] , its Kd = 1 to 20 nM

Bench note, FGFR3 (V555M) (Homo sapiens (Human), UniProt P22607, V555M): entry C[C@@H](Oc1ccc2[nH]nc(-c3cnc(N4CC[C@H](O)C4)c(C#N)c3)c2c1)c1c(Cl)cncc1Cl [Example 293] , its Kd = 1 to 20 nM

Bench note, FGFR3 (V555M) (Homo sapiens (Human), UniProt P22607, V555M): entry Cc1cnnc(C)c1[C@@H](C)Oc1ccc2[nH]nc(-c3ccc(N4CC5(CCOC5)C4)nc3)c2c1 [Example 206] , its Kd = 1 to 20 nM

# input for lookup
Bench note, FGFR3 (V555M) (Homo sapiens (Human), UniProt P22607, V555M): entry Cc1cnnc(C)c1[C@H](C)Oc1ccc2[nH]nc(-c3cnc(N4CCC5(CC4)CCS(=O)(=O)C5)nc3)c2c1 [Example 154] , its Kd = 20 to 100 nM

----------
# Kd per record follows
- testSystem: FGFR4 (Homo sapiens (Human), UniProt P22455)
- Sequence (P22455 22-802): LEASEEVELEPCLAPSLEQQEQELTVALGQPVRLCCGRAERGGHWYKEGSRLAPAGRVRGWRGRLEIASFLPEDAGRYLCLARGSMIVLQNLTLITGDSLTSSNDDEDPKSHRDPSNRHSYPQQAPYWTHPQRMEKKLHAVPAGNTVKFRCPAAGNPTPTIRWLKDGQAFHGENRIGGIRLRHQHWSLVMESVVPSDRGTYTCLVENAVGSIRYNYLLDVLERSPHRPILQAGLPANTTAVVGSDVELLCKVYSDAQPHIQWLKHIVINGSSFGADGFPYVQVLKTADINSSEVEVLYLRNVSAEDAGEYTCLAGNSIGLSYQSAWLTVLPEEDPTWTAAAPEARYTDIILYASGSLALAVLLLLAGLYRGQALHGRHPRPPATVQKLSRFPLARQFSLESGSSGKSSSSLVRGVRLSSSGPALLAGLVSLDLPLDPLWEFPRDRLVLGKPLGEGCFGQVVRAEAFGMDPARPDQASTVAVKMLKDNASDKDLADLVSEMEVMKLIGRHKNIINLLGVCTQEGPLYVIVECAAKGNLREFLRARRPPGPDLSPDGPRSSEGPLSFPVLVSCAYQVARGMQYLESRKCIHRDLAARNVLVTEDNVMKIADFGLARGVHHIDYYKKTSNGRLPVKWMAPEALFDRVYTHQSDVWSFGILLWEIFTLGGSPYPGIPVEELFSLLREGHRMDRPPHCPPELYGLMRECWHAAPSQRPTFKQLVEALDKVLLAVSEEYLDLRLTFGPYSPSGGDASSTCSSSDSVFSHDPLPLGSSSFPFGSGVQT
- assayProcedure: Kinase assay, binding constants (Kd), kinase-tagged T7 phage, qPCR

Record C[C@@H](Oc1ccc2[nH]nc(-c3ccc(N4CCS(=O)(=O)CC4)nc3)c2c1)c1c(Cl)cncc1Cl , field Kd: 1 to 20 nM

Record CCOC(=O)N1CC2(C1)CN(c1ncc(-c3n[nH]c4ccc(O[C@H](C)c5c(Cl)cnc(C)c5Cl)cc34)cn1)C2 , field Kd: 1 to 20 nM

Record Cc1cnnc(C)c1[C@@H](C)Oc1ccc2[nH]nc(-c3ccc(N4CC5(CCCN(C(=O)OC(C)C)C5)C4)nc3)c2c1 , field Kd: 1 to 20 nM

Record C[C@@H](Oc1ccc2[nH]nc(-c3cnc(N4CCC5(CC4)C(=O)NCCN5C)c(F)c3)c2c1)c1c(Cl)cncc1Cl , field Kd: 1 to 20 nM

Record C[C@@H](Oc1ccc2[nH]nc(-c3ccc(N4CC(C)(N)C4)nc3)c2c1)c1c(Cl)cncc1Cl , field Kd: 1 to 20 nM

***
Record C[C@@H](Oc1ccc2[nH]nc(-c3cnn([C@H]4CCNC4)c3)c2c1)c1c(Cl)cncc1Cl , field Kd: 20 to 100 nM

Record C[C@@H](Oc1ccc2[nH]nc(-c3ccc(N4CC5(CNC5)OC4=O)nc3)c2c1)c1c(Cl)cncc1Cl , field Kd: 1 to 20 nM

Record Cc1cnnc(C)c1[C@@H](C)Oc1ccc2[nH]nc(-c3cnc(N4CCCC4)c(C#N)c3)c2c1 , field Kd: 1 to 20 nM

Record Cc1cc(-c2n[nH]c3ccc(O[C@H](C)c4c(Cl)cnc(C)c4Cl)cc23)cnc1N1CC2(C1)CN(S(C)(=O)=O)C2 , field Kd: 1 to 20 nM

Record COC(=O)N1CCCC2(C1)CN(c1ccc(-c3n[nH]c4ccc(O[C@H](C)c5c(C)cnnc5C)cc34)cn1)C2 , field Kd: 1 to 20 nM

Record Cc1ncc(Cl)c([C@@H](C)Oc2ccc3[nH]nc(-c4cnn(C5CCOCC5)c4)c3c2)c1Cl , field Kd: 20 to 100 nM

Record C[C@@H](Oc1ccc2[nH]nc(-c3ccc(N4CCN(C(=O)N5CCN(C)CC5)CC4)nc3)c2c1)c1c(Cl)cncc1Cl , field Kd: 1 to 20 nM

Record Cc1ncc(Cl)c([C@@H](C)Oc2ccc3[nH]nc(-c4cnc(N5CC(CC(F)(F)F)C5)c(C#N)c4)c3c2)c1Cl , field Kd: 20 to 100 nM

Record C[C@@H](Oc1ccc2[nH]nc(-c3cnc(N4CC[C@H](O)C4)c(C#N)c3)c2c1)c1c(Cl)cncc1Cl , field Kd: 1 to 20 nM

Hello, the source for this data is patent US20240109865A1, in case you need it.
